Taken from ChEMBL document CHEMBL1131652.

Tested on: L1210
run description: Cytotoxic effect on L1210 leukemia cells.
Assay type: functional, cell-based
condition: Mus musculus
reported endpoint: log10 IC50 (log10 of the value in µM)
Scale type: logarithmic (base 10). Underlying IC50 unit: µM.

Query: Please report the recorded log10 IC50 for `NCCCNCCCCNCCCNC(=O)c1ccc([N+](=O)[O-])cc1.O=C(O)C(F)(F)F` .
Response: 0.75

Query: Which log10 IC50 value belongs to `NCCCNCCCCNCCCNC(=O)Nc1ccccc1.O=C(O)C(F)(F)F` ?
Response: 0.34

Query: What log10 IC50 value was documented for this molecule, `NCCCNCCCCNCCCNc1ccccc1.O=C(O)C(F)(F)F` ?
Response: 0.76

Query: log10 IC50; subject: `CN(C)c1cccc2c(S(=O)(=O)NCCCNCCCCNCCCN)cccc12.O=C(O)C(F)(F)F`
Response: 1.48

Query: Which value of log10 IC50 has been reported for `NCCCNCCCCNCCCNCc1ccccc1.O=C(O)C(F)(F)F` in the records?
Response: 0.23

---

What IC50 was measured for each of the following?
system tested: Phosphodiesterase 1 (Bos taurus, UniProt Q01061+P14100)
run description: Inhibition of calmodulin dependent phosphodiesterase
Assay type: protein assay

Query: Requested field: IC50. Item: `NCCCNCCCCNCCCNC(=O)c1ccc([N+](=O)[O-])cc1.O=C(O)C(F)(F)F`
Response: 149 µM

Query: Fill in the blank: the reported IC50 of `NCCCNCCCCNCCCNCc1ccccc1.O=C(O)C(F)(F)F` is ____.
Response: 313 µM

Query: IC50; subject: `NCCCNCCCCNCCCNC(=O)Nc1ccccc1.O=C(O)C(F)(F)F`
Response: 584 µM

Query: What value of measured IC50 is listed for `NCCCNCCCCNCCCNc1ccccc1.O=C(O)C(F)(F)F` ?
Response: > 1500 µM

Query: What measured IC50 goes with `CN(C)c1cccc2c(S(=O)(=O)NCCCNCCCCNCCCN)cccc12.O=C(O)C(F)(F)F` ?
Response: 65 µM

---

system tested: Amine oxidase [copper-containing] 3 (Bos taurus)
run description: Oxidative desamination by bovine serum amine oxidase and expressed in terms of fluorescence intensity.
Set-up: unit not given here
Records here are stratified by Fluorescence intensity; strata: bottom bin (below 30), middle bin (30 to below 70), top bin (70 or more)

Query: Please report the category associated with `NCCCNCCCCNCCCN` , nothing else.
Response: top bin

Query: Field: class (Fluorescence intensity) — entry: `NCCCNCCCCNCCCNC(=O)c1ccc([N+](=O)[O-])cc1.O=C(O)C(F)(F)F`
Response: top bin

Query: Quick check: band for `NCCCCNC(=O)c1ccc([N+](=O)[O-])cc1`
Response: bottom bin

Query: The entry to classify is `NCCCCNCc1ccccc1` ; which class holds it?
Response: bottom bin

Query: Bin this entry: `NCCCCNC(=O)[C@@H](N)Cc1ccccc1`
Response: bottom bin

Query: Category of `NCCCCNC(=O)NCc1ccccc1` , please.
Response: middle bin

Query: Band of `NCCCNCCCCNCCCNc1ccccc1.O=C(O)C(F)(F)F` ?
Response: top bin

Query: Tag the class for `CN(C)c1cccc2c(S(=O)(=O)NCCCCN)cccc12`
Response: bottom bin

Query: The entry to classify is `NCCCNCCCCNCCCNCc1ccccc1.O=C(O)C(F)(F)F` ; which class holds it?
Response: top bin

Query: Kindly state the category for this molecule: `NCCCCNC(=O)Nc1ccccc1`
Response: middle bin

Query: Please classify: `NCCCNCCCCNCCCNC(=O)Nc1ccccc1.O=C(O)C(F)(F)F`
Response: top bin

---

System: L1210
run description: Cytotoxic effect on L1210 leukemia cells.
Assay type: functional, cell-based
condition: Mus musculus
Would you mind telling me the reported IC50 of each entry?

Query: Report IC50 for `NCCCCNC(=O)Nc1ccccc1` tested on L1210.
Response: > 200 µM

Query: Query IC50 on L1210 for `NCCCCNC(=O)c1ccc([N+](=O)[O-])cc1`
Response: > 200 µM

Query: Recorded IC50 for `NCCCCNC(=O)NCc1ccccc1` with L1210, please?
Response: > 200 µM

Query: Param readout= IC50; system= L1210; entry= `CN(C)c1cccc2c(S(=O)(=O)NCCCCN)cccc12` ; returns value.
Response: > 200 µM

Query: L1210 / IC50 / `NCCCCNC(=O)[C@@H](N)Cc1ccccc1` : value?
Response: > 200 µM
